Biological target: Activated human plasma kallikrein (Enzyme Research Laboratories, HPKa 1303) (human, UniProt P03952 20-638)
Sequence (P03952 20-638 limits assumed): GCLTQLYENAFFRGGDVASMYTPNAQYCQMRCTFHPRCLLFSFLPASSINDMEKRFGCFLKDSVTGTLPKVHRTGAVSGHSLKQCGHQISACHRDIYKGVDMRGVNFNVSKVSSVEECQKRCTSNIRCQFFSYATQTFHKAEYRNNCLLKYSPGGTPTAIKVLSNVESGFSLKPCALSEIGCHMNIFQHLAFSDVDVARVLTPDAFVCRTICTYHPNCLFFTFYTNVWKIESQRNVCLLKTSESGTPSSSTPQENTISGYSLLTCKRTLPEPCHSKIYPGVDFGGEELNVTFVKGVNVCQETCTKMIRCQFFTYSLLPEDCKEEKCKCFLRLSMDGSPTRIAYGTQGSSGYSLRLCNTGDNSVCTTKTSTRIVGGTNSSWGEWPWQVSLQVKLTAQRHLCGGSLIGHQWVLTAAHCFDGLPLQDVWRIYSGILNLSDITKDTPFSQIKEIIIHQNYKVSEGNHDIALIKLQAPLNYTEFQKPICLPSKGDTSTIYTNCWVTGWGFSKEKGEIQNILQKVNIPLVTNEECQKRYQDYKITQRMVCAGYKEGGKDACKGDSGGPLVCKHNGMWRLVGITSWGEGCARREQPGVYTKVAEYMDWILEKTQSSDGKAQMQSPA
Experiment: cell-based or functional assay
Square brackets hold non-standard residues; d marks the D form. Ends that are not written are not given here. Nva = CCC[C@H](N)C(=O)O
Assign class by Avg. IC50: not lower than 70 nM means 1; lower than 70 nM means 0.

| binder | class_assignment |
| --- | --- |
| Ac-[Nva]NYWSPWTAC-NH2 (SMILES CCC[C@H](NC(C)=O)C(=O)N[C@@H](CC(N)=O)C(=O)N[C@@H](Cc1ccc(O)cc1)C(=O)N[C@@H](Cc1c[nH]c2ccccc12)C(=O)N[C@@H](CO)C(=O)N1CCC[C@H]1C(=O)N[C@@H](Cc1c[nH]c2ccccc12)C(=O)N[C@H](C(=O)N[C@@H](C)C(=O)N[C@@H](CS)C(N)=O)[C@@H](C)O) [R2139] | 0 |
| MSNYWSPWTESSA-NH2 [R2107] | 1 |
| Ac-[Nva]NYWSPWTA[Nva]-NH2 (SMILES CCC[C@H](NC(=O)[C@H](C)NC(=O)[C@@H](NC(=O)[C@H](Cc1c[nH]c2ccccc12)NC(=O)[C@@H]1CCCN1C(=O)[C@H](CO)NC(=O)[C@H](Cc1c[nH]c2ccccc12)NC(=O)[C@H](Cc1ccc(O)cc1)NC(=O)[C@H](CC(N)=O)NC(=O)[C@H](CCC)NC(C)=O)[C@@H](C)O)C(N)=O) [R2141] | 1 |
| Ac-CNYWSPWAEC-NH2 (cysteine pairing not given here) [R2129] | 0 |
| Ac-ANYWSPWTEC-NH2 [R2138] | 0 |
